Tested on: THP-1 cells
Test: Cellular toxicity (MTT assay) in THP-1 cells
Assay type: cell-based, human
Conditions: Homo sapiens, THP-1; MTT assay; 72 h at 37 °C
MEASURED PARAMETER: EC50 (µM)
Give bare numbers, in µM.

>  <COMPOUND>
CCCCCCCCCCCCS(=O)(=O)CCC[C@@H]1[C@H](O)[C@@H](O)[C@H](O)[C@H]2COC(=O)N12 [Compound 5]

>  <MEASURED TARGET>
THP-1 cells

>  <UNIT TEXT>
µM

>  <EC50>
100

$$$$

Read the next record carefully.
For the compound CCCCCCCCCCCCSCCC[C@@H]1[C@H](O)[C@@H](O)[C@H](O)[C@H]2COC(=O)N12 [Compound 2] , what EC50 is on record?
72.2

###

Test system: THP-1 cells
Experiment: Cellular toxicity (MTT assay) in THP-1 cells
Format: cell-based, human
Conditions: Selectivity Index
MEASURED PARAMETER: SI (EC50 THP-1/EC50 parasite)
Answers are plain numbers.

API: value(readout=SI (EC50 THP-1/EC50 parasite), system=THP-1 cells) for record C[C@@H]1[C@H](O)[C@@H](C)/C=C/C=C/C=C/C=C/C=C/C=C/C=C/[C@H](O[C@@H]2O[C@H](C)[C@@H](O)[C@H](N)[C@@H]2O)C[C@@H]2O[C@](O)(C[C@@H](O)C[C@@H](O)[C@H](O)CC[C@@H](O)C[C@@H](O)CC(=O)O[C@H]1C)C[C@H](O)[C@H]2C(=O)O [AmB, amphotericin B, reference compound]
133.80

###

Please go through the items and note down their EC50.
System: human lung fibroblast MRC-5 cells
Test: Cellular toxicity (MTT assay) in MRC-5 cells
Assay type: cell-based
Settings: Homo sapiens, MRC5; MTT assay; 72 h at 37 °C
Give bare numbers, in µM.

>  <COMPOUND>
CCCCCCCCSCCC[C@@H]1[C@H](O)[C@@H](O)[C@@H](O)[C@H]2COC(=O)N12 [Compound 7]

>  <UNIT TEXT>
µM

>  <EC50>
60.4

$$$$
>  <COMPOUND>
CCCCCCCCS(=O)(=O)CCC[C@@H]1[C@H](O)[C@@H](O)[C@@H](O)[C@H]2COC(=O)N12 [Compound 10]

>  <UNIT TEXT>
µM

>  <EC50>
185

$$$$
>  <COMPOUND>
CC(C)(C)OC(=O)NCCSCCC[C@@H]1[C@H](O)[C@@H](O)[C@H](O)[C@H]2COC(=O)N12 [Compound 3]

>  <UNIT TEXT>
µM

>  <EC50>
134

$$$$

I would be grateful if you could provide EC50 for each of the following entries.
1. CC(C)(C)OC(=O)NCCSCCC[C@@H]1[C@H](O)[C@@H](O)[C@@H](O)[C@H]2COC(=O)N12 [Compound 9]
2. CCCCCCCCCCCCS(=O)(=O)CCC[C@@H]1[C@H](O)[C@@H](O)[C@@H](O)[C@H]2COC(=O)N12 [Compound 11]
3. CC(C)(C)OC(=O)NCCS(=O)(=O)CCC[C@@H]1[C@H](O)[C@@H](O)[C@@H](O)[C@H]2COC(=O)N12 [Compound 12]

[140, 162, 182]
